target-or-system: OscobB (Oryza sativa)
measured-quantity: Kd (µM)

>>> df
                                chem_smiles  test_value
0  NC(=O)c1ccc[n+]([C@@H]2O[C@H](COP(=O)(O)OP(=O)(O)OC[C@H]3O[C@@H](n4cnc5c(N)ncnc54)[C@H](O)[C@@H]3O)[C@@H](O)[C@H]2O)c1          30

====

target-or-system: OscobB (Oryza sativa)
Construct: cobB-like portion 269-501 of OsI_09569, untagged, modified pET28a (insert 711 bp), E. coli BL21(DE3), ion exchange; 25-28 kDa monomer
experiment-description: dot blot deacetylation assay
pEC50: −log10 of the molar value.
measured-quantity: pEC50

In [3]: df
Out[3]:
                                   compound  measured_quantity  test_value
0  Oc1ccc(/C=C/c2cc(O)cc(O)c2)cc1 [resveratrol]              pEC50        4.29

====

target-or-system: OscobB (Oryza sativa, UniProt A2XBC4)
Construct: gene OsI_09569; cobB-like portion 269-501 of OsI_09569, untagged, modified pET28a (insert 711 bp), E. coli BL21(DE3), ion exchange; 25-28 kDa monomer
Sequence (A2XBC4 269-501): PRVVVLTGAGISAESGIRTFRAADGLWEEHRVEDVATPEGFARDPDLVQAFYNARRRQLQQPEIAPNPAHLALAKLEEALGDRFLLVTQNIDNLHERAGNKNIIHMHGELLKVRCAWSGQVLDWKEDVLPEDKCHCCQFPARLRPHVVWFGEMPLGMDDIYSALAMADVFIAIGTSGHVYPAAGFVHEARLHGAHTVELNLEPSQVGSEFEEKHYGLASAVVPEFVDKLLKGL
experiment-description: dot blot deacetylation assay
Format: biochemical
condition-summary: NAD+; analog of product O-acetyl-ADP-ribose
measured-quantity: IC50 (µM)

>>> df
                                   molecule  test_value
0  Nc1ncnc2c1ncn2[C@@H]1O[C@H](COP(=O)(O)OP(=O)(O)OC[C@H]2OC(O)[C@H](O)[C@@H]2O)[C@@H](O)[C@H]1O (stereo partly shown)         410
